# system-under-test: T1, human complement C3b protein (human, UniProt P01024 23-667; P01024 749-1663)
# T1 construct: Purified plasma C3b (Complement Technology, Quidel); Depending on the assay it was captured by an anti-C3d antibody, coated, biotinylated or coupled to beads; also called human C3b; huC3b
# T1 sequence (P01024 23-667 P314L, chain 1 of 2): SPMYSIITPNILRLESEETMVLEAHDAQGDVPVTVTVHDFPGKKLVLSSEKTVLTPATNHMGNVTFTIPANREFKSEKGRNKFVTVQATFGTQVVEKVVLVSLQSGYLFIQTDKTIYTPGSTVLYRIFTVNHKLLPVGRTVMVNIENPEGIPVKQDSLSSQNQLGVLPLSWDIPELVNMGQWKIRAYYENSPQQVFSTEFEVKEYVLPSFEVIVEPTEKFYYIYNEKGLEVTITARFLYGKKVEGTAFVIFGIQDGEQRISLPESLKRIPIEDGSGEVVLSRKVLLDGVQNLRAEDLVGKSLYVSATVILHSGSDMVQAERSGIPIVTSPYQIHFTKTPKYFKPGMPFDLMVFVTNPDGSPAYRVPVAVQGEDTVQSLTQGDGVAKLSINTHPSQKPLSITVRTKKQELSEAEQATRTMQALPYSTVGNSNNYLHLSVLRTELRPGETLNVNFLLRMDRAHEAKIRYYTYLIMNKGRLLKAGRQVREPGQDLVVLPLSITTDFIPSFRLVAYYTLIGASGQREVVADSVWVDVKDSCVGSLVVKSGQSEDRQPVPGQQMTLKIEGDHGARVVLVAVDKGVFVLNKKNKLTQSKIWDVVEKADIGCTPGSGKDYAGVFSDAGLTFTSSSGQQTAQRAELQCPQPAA
# T1 sequence (P01024 749-1663, chain 2 of 2): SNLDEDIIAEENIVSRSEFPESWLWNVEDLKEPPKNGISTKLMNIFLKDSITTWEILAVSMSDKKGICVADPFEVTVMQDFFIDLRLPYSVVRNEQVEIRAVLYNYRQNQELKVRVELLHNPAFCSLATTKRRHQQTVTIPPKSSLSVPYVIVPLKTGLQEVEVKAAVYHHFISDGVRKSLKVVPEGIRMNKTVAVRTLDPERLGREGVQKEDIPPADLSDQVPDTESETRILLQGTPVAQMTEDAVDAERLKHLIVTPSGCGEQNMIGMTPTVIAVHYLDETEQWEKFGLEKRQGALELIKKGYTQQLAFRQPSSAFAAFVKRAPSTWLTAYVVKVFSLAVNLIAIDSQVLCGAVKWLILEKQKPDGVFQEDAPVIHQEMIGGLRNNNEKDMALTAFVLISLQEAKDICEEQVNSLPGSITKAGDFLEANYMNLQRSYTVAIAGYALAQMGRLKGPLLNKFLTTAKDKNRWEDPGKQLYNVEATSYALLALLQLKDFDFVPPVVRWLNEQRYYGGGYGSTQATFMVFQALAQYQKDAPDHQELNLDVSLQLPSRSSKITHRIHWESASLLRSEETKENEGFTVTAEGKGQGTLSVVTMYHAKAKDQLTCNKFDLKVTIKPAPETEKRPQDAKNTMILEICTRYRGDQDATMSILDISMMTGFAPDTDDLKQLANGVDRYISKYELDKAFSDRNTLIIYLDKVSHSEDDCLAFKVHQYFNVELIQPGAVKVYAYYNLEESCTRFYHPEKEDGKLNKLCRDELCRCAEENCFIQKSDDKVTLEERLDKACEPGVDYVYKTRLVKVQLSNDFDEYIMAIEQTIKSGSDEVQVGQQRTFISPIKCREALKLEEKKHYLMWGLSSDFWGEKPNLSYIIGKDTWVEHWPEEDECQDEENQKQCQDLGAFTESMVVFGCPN
# assay-remarks: SPR (Biacore T100), C3b captured by anti-C3d antibody, IgG as analyte, 1:1 model
measured-parameter: log10 Kd (log10 of the value in pM)
Values are log10 of Kd in pM.

These recorded examples may help you get a feel for the data.
MOR09675 IgG (antibody, V domains shown, Germlined human IgG1 with leucines 234 and 235 changed to alanines, kappa; also called antibody 9675) VH: EVQLVQSGAEVKKPGASVKVSCKASGYTFTGYYINWVRQAPGQGLEWMGIISPNQGTTGYAQKFQGRVTMTRDTSISTAYMELSSLRSEDTAVYYCARGNYDHLDYWGQGTLVTVSS VL: DIQMTQSPSSLSASVGDRVTITCRASQGISNYLNWYQQKPGKAPKLLIYDASTLQSGVPSRFSGSGSGTDFTLTISSLQPEDFATYYCQQDWHTLPVTFGQGTKVEIKR = 0.46
MOR09610 IgG (antibody, V domains shown, Germlined human IgG1 with leucines 234 and 235 changed to alanines, kappa; also called antibody 9610) VH: EVQLVQSGAEVKKPGSSVKVSCKASGGTFSSYTFSWVRQAPGQGLEWMGNILPIFGDANYAQKFQGRVTITADESTSTAYMELSSLRSEDTAVYYCARNKGAFYYMSTYPSLDVWGQGTLVTVSS VL: DIQMTQSPSSLSASVGDRVTITCRASQNINYYLNWYQQKPGKAPKLLIYDAFSLQSGVPSRFSGSGSGTDFTLTISSLQPEDFATYYCQQSIAVPPFTFGQGTKVEIKR = 0.69
MOR09612 IgG (antibody, V domains shown, Germlined human IgG1 with leucines 234 and 235 changed to alanines, kappa; also called antibody 9612) VH: EVQLVESGGGLVQPGGSLRLSCAASGFTFSSYWMTWVRQAPGKGLEWVSSIKIKPDGYAASVKGRFTISRDNSKNTLYLQMNSLRAEDTAVYYCARLFYQYFARMDYWGQGTLVTVSS VL: DIQMTQSPSSLSASVGDRVTITCRASQDISNYLNWYQQKPGKAPKLLIYAASNLQSGVPSRFSGSGSGTDFTLTISSLQPEDFATYYCQQWDSFSPTFGQGTKVEIKR = 0.25

Q) I would be grateful if you could share the reported log10 Kd for MOR09556 IgG (antibody, V domains shown, Germlined human IgG1 with leucines 234 and 235 changed to alanines, kappa; also called antibody 9556) VH: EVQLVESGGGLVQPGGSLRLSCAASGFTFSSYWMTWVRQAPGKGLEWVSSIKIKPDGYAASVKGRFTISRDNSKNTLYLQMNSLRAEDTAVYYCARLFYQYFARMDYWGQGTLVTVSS VL: DIQMTQSPSSLSASVGDRVTITCRASQDISNYLNWYQQKPGKAPKLLIYAASNLQSGVPSRFSGSGSGTDFTLTISSLQPEDFATYYCQQYDSYSPTFGQGTKVEIKR .
A) -1.00

Q) Repeat for the following binder: MOR09611 IgG (antibody, V domains shown, Germlined human IgG1 with leucines 234 and 235 changed to alanines, kappa; also called antibody 9611) VH: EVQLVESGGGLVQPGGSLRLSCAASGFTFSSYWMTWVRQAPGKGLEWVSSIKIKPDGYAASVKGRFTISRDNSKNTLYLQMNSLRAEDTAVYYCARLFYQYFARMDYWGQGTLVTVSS VL: DIQMTQSPSSLSASVGDRVTITCRASQDISNYLNWYQQKPGKAPKLLIYAASNLQSGVPSRFSGSGSGTDFTLTISSLQPEDFATYYCQQHDTFRPTFGQGTKVEIKR
A) -0.36

Q) What about this binder? MOR09609 IgG (antibody, V domains shown, Germlined human IgG1 with leucines 234 and 235 changed to alanines, kappa; also called antibody 9609) VH: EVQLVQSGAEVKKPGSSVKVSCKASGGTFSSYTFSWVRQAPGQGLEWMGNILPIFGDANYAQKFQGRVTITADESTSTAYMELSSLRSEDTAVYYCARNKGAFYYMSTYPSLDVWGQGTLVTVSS VL: DIQMTQSPSSLSASVGDRVTITCRASQNINYYLNWYQQKPGKAPKLLIYDAFSLQSGVPSRFSGSGSGTDFTLTISSLQPEDFATYYCQQSWSVPPFTFGQGTKVEIKR
A) 0.34
